System: Plasmodium berghei
Assay: Screen against P. berghei liver stage (PbLuc), transformed with Luciferase, at 10uM
Format: functional, HepG2
Details: tested at 10 uM
About 8,600 (12%) of roughly 69,000 compounds showed an effect of 50% or more. Many of the other results were omitted from the sample, so strong results are more common in it than they were.
This listing pairs molecules with measured INHIBITION.
endpointName: INHIBITION (%)

• Cc1ccc2c(c1)OCCN2C(=O)c1ccc(=O)n(C)c1 = 8.48
• CN(CCc1ccccc1)C(=O)CN1C(=O)OC[C@@H]1c1ccccc1 = 36.9
• CS(=O)(=O)NC(=O)c1nnn(-c2ccccc2)c1C1CC1 = 8.64
• COc1cc2c(cc1OC)C(=O)C(Sc1nnnn1C)C2 (stereo unspecified) = 26.4
• Cc1noc(C)c1CN1Cc2nccn2CC(CN2CCOCC2)C1 (stereo unspecified) = 18.3
• CC(NC(=O)N(C)Cc1ccncc1)c1cn(-c2ccccc2)nn1 (stereo unspecified) = 60.1
• COCCCN1CC2(CCN(C(=O)c3ccc(=O)n(C)c3)CC2)CC1=O = -14.7
• CN1C(=O)C2(CCN(C(=O)c3ccccc3)CC2)c2cc(F)ccc21 = 39.4
• Cc1cc(C)cc(N2CCN(Cc3cccc(CCN)c3)CC2=O)c1 = 2.18
• NCCc1cccc(CN2CCN(c3ccccc3)C(=O)C2)c1 = 26.8
• COc1ccc(Br)cc1CN(C)C(C)c1nc(C)no1 (stereo unspecified) = 4.82
• CN(CCO)C[C@@H]1CN(C2CCN(c3ccccc3Cl)CC2)C[C@@H]1CO = 55.2
• N#Cc1ccc(CN(CC(N)=O)C2CCCC2)c(Br)c1 = 90.2
• CN1CC2(CCN(C(=O)c3ccc4nonc4c3)CC2)CC1=O = -6.01
• CN(C)C[C@@H]1CN(C2CCN(c3ccc(Cl)cc3)CC2)C[C@@H]1CO = -86.5
• CC1CN(C)c2ccccc2N(C(=O)c2ccc(=O)n(C)c2)C1 (stereo unspecified) = 31.8

====

System: Plasmodium berghei
Test: Screen against P. berghei liver stage (PbLuc), transformed with Luciferase, at 10uM
Type: functional, HepG2
Details: tested at 10 uM
Among all 69,000 compounds or so, about 8,600 (12%) showed an effect of 50% or more. The sample holds strong results, similar compounds and a random draw of the others, so the mix is not that of the screen.
This listing pairs compounds with measured INHIBITION.
endpointName: INHIBITION

- Cc1cc(N2CCCC2c2nnc3n2CCCCC3)nc(N)n1 (stereo unspecified): 63.6%
- O=C(N[C@@H]1CN(c2ncccn2)C[C@@H]2CCCO[C@@H]21)c1ccncc1: 35.8%
- CCCC1COCCN1Cc1ccc(S(=O)(=O)NC)cc1 (stereo unspecified): -6.39%
- Clc1ccccc1Cn1cc(CNC2CCc3ncnn3C2)cn1 (stereo unspecified): -12.1%
- N#Cc1ccc(CNC(=O)C2=NN(c3ccccc3)C(=O)CN2)cc1: -72.2%
- O=c1cc(CN2CCCC2)nc2n1CCCN(S(=O)(=O)C1CC1)C2: 29.5%
- COCCNC(=O)Cn1c(-c2cccc(F)c2)nc(C)c(CCO)c1=O: 7.22%
- COc1ccccc1CNC(=O)C1=NN(c2ccc(C)cc2)C(=O)CN1: 18.1%
- CCN(CC)c1ncc(S(=O)(=O)c2cccc(C)c2)c(N)n1: 17.7%
- COc1ccc(CN2CC(O)CN(C(=O)c3ccccc3)CC2=O)cc1 (stereo unspecified): 23%
- O=C(NCc1cccnc1)C1=NN(c2ccccc2)C(=O)CN1: -19.2%
- CCOC1COC2(CCN(Cc3ccc4c(c3)OCO4)CC2)C1 (stereo unspecified): 24.9%
- Cc1ccccc1CN1CCN(C(C)c2nc(C3CC3)no2)CC1 (stereo unspecified): 5.7%
- Cc1cccc(CN2C[C@@H]3COC[C@]3(CNC(=O)c3cccn3C)C2)n1: -17.1%
- Cc1cnn(C2CN(Cc3nc4cc(Cl)ccc4n3C)C2)c1: -10.6%
- CC(C)(C)C(=O)N[C@H]1CC[C@H](Nc2nccc(-c3ccncc3)n2)C1: 18.7%
- Fc1ccccc1Oc1nccnc1C1CCCN(C2CCOCC2)C1 (stereo unspecified): -3.02%
- O=C(CN1CCc2sccc2C1)Nc1ccnc2ccnn12: 82.2%
- CC(C)(C)OC(=O)N1CC(=O)N(Cc2ccco2)CC(O)C1 (stereo unspecified): 29.8%
- Cc1nc(CN2C(=O)CCC23CCN(c2ncccn2)CC3)cs1: -38.1%
- Cn1nccc1NC(=O)CN1CCc2sccc2C1: 18.6%

====

This listing pairs compounds with measured INHIBITION.
System: Plasmodium berghei
Test: Screen against P. berghei liver stage (PbLuc), transformed with Luciferase, at 10uM
Type: functional, HepG2
Conditions: tested at 10 uM
Screen size: about 69,000 compounds; about 8,600 (12%) showed an effect of 50% or more. This excerpt belongs to a sample that is enriched for strong results.
endpointName: INHIBITION (%)

* CN(C)C(=O)[C@@H]1CCO[C@@H]2CCN(c3ncccn3)C[C@@H]21 | 8.85
* COCc1ccc(C(=O)N2CCN(CC(C)O)CC2)cc1 (configuration not stated) | -7.81
* CS(=O)(=O)CCSCc1ccc(Br)c(F)c1 | 50.7
* CN1CC2(CCN(C(=O)c3cn4cccnc4n3)CC2)CC1=O | -28.9
* COCC1CN(Cc2ccc(OC)cc2)Cc2nnn(CC3CC3)c21 (configuration not stated) | 18.7
* CC(C)c1cc(NCc2csc(C(C)C)n2)nc(N)n1 | 58
* NC(=O)NC1CCN(Cc2ccc(Br)c(F)c2)CC1 | 1.45
* Cc1c(C(=O)N2CCN(c3ccccn3)CC2)n(C)c2ccc(Cl)cc12 | 34
* CC(C)CNC(=O)[C@H]1C[C@H]2CN(C(=O)NCC3CCCCC3)C[C@@H]1O2 | -41.9
* Cn1cc(C2CC(=O)NC23CCN(Cc2cccc(F)c2)CC3)cn1 (configuration not stated) | -1.36
* NC(=O)c1ccc(NC(=O)c2ccncc2Cl)cn1 | 13.8
* CC(C)c1ccc(/C=C/CC(=O)NC2CCN(C(N)=O)C2)cc1 (configuration not stated) | 36.5
* O=C1NCCCCC1Sc1ccc(F)c(F)c1 (configuration not stated) | 25.2
* CCc1nc2n(n1)CC(NCc1cnn(Cc3ccccc3)c1)CC2 (configuration not stated) | -2.19
* Cc1nc(C2CCCN(C(=O)c3scnc3C)C2)no1 (configuration not stated) | 18.1
* CS(=O)(=O)N1CC2(CCN(C3CCCCC3)CC2)Cc2ccccc21 | 32.5
* N#Cc1nc(COc2ccc3c(c2)OCO3)oc1N1CCCC1 | 45.2
* CC(C)c1noc(CCC(=O)NC2CCS(=O)(=O)C2)n1 (configuration not stated) | -12.2
* CC1CCCN(C(=O)c2ccc(-c3ccco3)o2)C1 (configuration not stated) | -22.2
* CCCn1nccc1NC(=O)CN1CCOC(Cn2cc(C)cn2)C1 (configuration not stated) | 21.9
* CCc1nnsc1C(=O)N(C)Cc1nnc2n1CCC2 | 22.9
* Cc1ocnc1C(=O)N1CC[C@@]2(O)CCN(C(=O)N3CCCC3)C[C@H]2C1 | 36.5
* Cc1cc(C(O)CCNC(=O)c2ccc(Cl)s2)c(C)o1 (configuration not stated) | -1.04
* CN(Cc1nc(COc2ccccc2)no1)CC1Cc2ccccc2O1 (configuration not stated) | 8.07
* CSC(C)(C)CNC(=O)NC1CCC1 | 34.6
* COc1c(CNC(c2cccc(F)c2)c2nccn2C)c(C)nn1C (configuration not stated) | -16.8
* NC(=O)CCSCc1ccc(Br)c(F)c1 | 52.8
* CS(=O)(=O)CCCSCc1ccc(Br)c(F)c1 | -59.7
* CS(=O)(=O)CCCSCc1cc(F)cc(Br)c1 | 31.2
* CN(Cc1nc(Cc2ccccc2F)no1)CC1Cc2ccccc2O1 (configuration not stated) | 52
* CC(C)c1ccc(/C=C/CC(=O)NC2CCN(C(N)=O)CC2)cc1 | 83.5
* Cc1cncc(C2CCCN(C(=O)c3cn(C)nc3C)C2)n1 (configuration not stated) | 36.7
* COCCN1CCC(NC(=O)C(C)C)CC1 | -34.4
* CCOc1c(CNCCCn2ccnc2)cc(Cl)cc1OC | -9.2
* Cc1cccc(S(=O)(=O)N2CCCC3(CCCN3S(C)(=O)=O)C2)c1 (configuration not stated) | -61.6
* O=C(O)c1ccn(-c2ccccc2NS(=O)(=O)c2cccc(F)c2)n1 | 30.3
* Cc1nc(N)cc(NCc2csc(N(C)C)n2)n1 | -84.1

====

Test system: Plasmodium berghei
Assay: Screen against P. berghei liver stage (PbLuc), transformed with Luciferase, at 10uM
Assay type: functional, HepG2
Conditions: tested at 10 uM
The campaign covered roughly 69,000 compounds. About 8,600 (12%) showed an effect of 50% or more. The list comes from a sample in which strong results are over-represented; it also holds close analogues and randomly drawn compounds.
endpointName: INHIBITION (%)

* COC(=O)CN1CCCN(C(=O)CCOc2cccc(C)c2C)CC1 | 29.7
* O=C(Cn1cc(-c2ccccc2)ncc1=O)Nc1nccs1 | -13.6
* COC1CCN(c2ccc(F)cc2CN(C)S(C)(=O)=O)CC1 | 4.52
* Cc1ccc(C(=O)Nc2ccc(N(C)C)cn2)n1C | -75.9
* Cc1cccc(Sc2nccn(C)c2=O)c1 | 20.3
* Cc1cn(Cc2ccc(F)c(F)c2)nc1N | 70.8
* O=C(C1CC1)N1C[C@@H](F)[C@@H](OCc2nc3ccccc3[nH]2)C1 | 7.85
* O=C(c1ccno1)N1C[C@@H](F)[C@@H](OCc2nc3ccccc3o2)C1 | 56.3
* Cc1cccc(OCCC(=O)N2CCCN(CC(N)=O)CC2)c1C | 55.9
* CC(C)c1nnc2n1CCN(C(=O)c1cccc(S(C)(=O)=O)c1)C2 | 45.7
* NC(=O)CN1CCCN(C(=O)Cc2ccc3ccccc3c2)CC1 | -9.98

The measured values listed here are drawn from ChEMBL document CHEMBL4513216.
